SYSTEM_NAME: T1, Recombinant human CD4 (R&D Systems, Cat. 10327-CD) (human, UniProt P01730 26-390, limits assumed)
T1 construct: Bought protein; also called huCD4
EXPERIMENT_DESCRIPTION: BLI (Octet Red 384), non-clonal supernatant captured on AMC sensors, 100 nM human CD4, 1:1 local fit;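 further: hybridoma antibodies from supernatants, one CD4 concentration giving single-point kinetics per supernatant, with curves fitted over both association and dissociation phases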
RESULT_TYPE: Kd (nM)
Numbers only, in nM.

**Query** Requested read-out: Kd. Entry: 75110_04G16A (antibody, V domains shown, Tested as non-clonal AlivaMab Mouse hybridoma supernatant (chimeric: human variable regions and human kappa, mouse Fc, captured by anti-mouse IgG Fc sensors); also called ADS75110 non-clonal supernatant 04G16A) VH: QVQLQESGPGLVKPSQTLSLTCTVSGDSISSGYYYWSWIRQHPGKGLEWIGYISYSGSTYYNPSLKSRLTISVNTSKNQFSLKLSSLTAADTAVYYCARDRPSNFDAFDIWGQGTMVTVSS VL: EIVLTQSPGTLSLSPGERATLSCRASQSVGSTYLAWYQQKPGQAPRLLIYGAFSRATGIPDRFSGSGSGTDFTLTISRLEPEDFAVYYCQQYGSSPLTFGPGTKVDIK
**Result** 0.95

Just for reference, patent US20220112288A1 is where these values come from.
